ASSAY DETAILS: Use of additives to improve separation of Nd/Dy mixture by precipitation with L5 (Example 18)
Format: physicochemical
ASSAY SETUP: additive 500 mM; 11 mM L5
REPORTED PROPERTY: Precipitate concentration [mM] Dy
Quote the value and follow it with the unit of measurement.

Assign Precipitate concentration [mM] Dy to the following record: Cl [chloride]
4.29 mM

Assign Precipitate concentration [mM] Dy to the following record: O=[N+]([O-])O [nitrate]
4.16 mM

Assign Precipitate concentration [mM] Dy to the following record: N#C[S-].[Na+] [thiocyanate]
4.16 mM

Assign Precipitate concentration [mM] Dy to the following record: CC(=O)O [acetate]
0.49 mM

Assign Precipitate concentration [mM] Dy to the following record: O=CO [formate]
2.09 mM

Assign Precipitate concentration [mM] Dy to the following record: O=S(=O)(O)O [sulfate]
3.57 mM
